Test summary: Stability on storage (related substances and decomposition products)
Assay type: physicochemical
Assay setup: t = 18 months (at 2-8° C.); unit assumed
Measurement label: Related Substances (from process) P.A. E (%)
Record the value in %, omitting the unit from your answer.

Which Related Substances (from process) P.A. E value belongs to C/C(=C\C(=O)OCCCCCCCCC(=O)[O-])C[C@@H]1OC[C@H](C[C@@H]2O[C@H]2[C@@H](C)[C@H](C)O)[C@@H](O)[C@H]1O.C/C(=C\C(=O)OCCCCCCCCC(=O)[O-])C[C@@H]1OC[C@H](C[C@@H]2O[C@H]2[C@@H](C)[C@H](C)O)[C@@H](O)[C@H]1O.[Ca+2] [amorphous calcium pseudomonate, calcium pseudomonate] ?
0.09
